Data credit: patent US10501460B2

So I've got a bunch of compounds here, and I need their IC50 values.
- System: MV-4-11
- ASSAY DETAILS: Oncology cell growth assay MV-4-11 (CellTiter Glo, 72 hours)
- Format: cell-based
- PARTICULARS: Homo sapiens, MV4-11, 72 h; MV-4-11 cell growth inhibitory activity, 3d

Qu. Find the recorded IC50 belonging to Cc1noc(C)c1-c1cnc2c(c1)c(S(=O)(=O)c1ccccc1)cn2-c1cnn(C)c1 [P-0185] and report it.
Ans. ≤ 1 µM

Qu. Here is the next compound: Cc1noc(C)c1-c1cnc2c(c1)c(S(=O)(=O)c1ccccc1)cn2C1CCOCC1 [P-0183]
Ans. ≤ 1 µM

Qu. Try C=CCn1cc(-c2cn(S(=O)(=O)C3CC3)c3cc(-c4c(C)noc4C)cnc23)cn1 [P-0139] next.
Ans. ≤ 1 µM

Qu. Now give it for Cc1noc(C)c1-c1cnc2c(-c3cnn(C)c3)cn(Cc3cccnc3)c2c1 [P-0195] too.
Ans. ≤ 1 µM

Qu. Another: Cc1noc(C)c1-c1cnc2c(-c3cccnc3)c[nH]c2c1 [P-0083]
Ans. 1 to 10 µM

---

- TARGET: BRD4-BD1 (44-164) (Homo sapiens)
- Construct: BRD4-BD1 (44-164); made in house; host or cells: E. coli BL21-CodonPlus (DE3)
- ASSAY DETAILS: Alphascreen binding assay BRD4-BD1 (BRD4 biochemical inhibitory activity)
- PARTICULARS: read-out: Biochemical activity (IC50 μM) BRD4(1) H4
EXPERIMENTAL ENDPOINT: IC50

Qu. Sample Cc1noc(C)c1-c1cnc2ccn(S(=O)(=O)c3ccc(Cl)cc3)c2c1 [P-0053] — what was its IC50?
Ans. 1 to 10 µM

Qu. Try this compound next: CCc1[nH]c2ncc(-c3c(C)noc3C)cc2c1Cc1cccc(OC(F)(F)F)c1 [P-0050]
Ans. 10 to 200 µM

Qu. // same read-out, input: Cc1noc(C)c1-c1cnc2c(c1)c(S(=O)(=O)c1ccccc1)cn2C1CCOCC1 [P-0183]
Ans. 1 to 10 µM

Qu. Here is the next compound: Cc1noc(C)c1-c1cnc2c(C#N)cn(S(=O)(=O)c3ccccc3)c2c1 [P-0081]
Ans. ≤ 1 µM

Qu. What do we get for Cc1noc(C)c1-c1cnc2c(-c3cccnc3)c[nH]c2c1 [P-0083] ?
Ans. 1 to 10 µM

---

Consider the following compounds; for each one, report its IC50.
- Tested on: MV-4-11
- ASSAY DETAILS: Oncology cell growth assay MV-4-11 (CellTiter Glo, 72 hours)
- Format: cell-based
- PARTICULARS: Homo sapiens, MV4-11, 72 h; MV-4-11 cell growth inhibitory activity, 3d

Qu. Bench note: what IC50 did C=CCn1cc(-c2cn(S(=O)(=O)CC3CC3)c3cc(-c4c(C)noc4C)cnc23)cn1 show?
Ans. ≤ 1 µM

Qu. Input CCn1cc(-c2cn(S(=O)(=O)c3ccccc3)c3cc(-c4c(C)noc4C)cnc23)cn1
Ans. ≤ 1 µM

Qu. Ok, now Cc1noc(C)c1-c1cnc2c(-c3cnn(C)c3)cn(Cc3c(Cl)cccc3Cl)c2c1
Ans. ≤ 1 µM

Qu. Next compound: Cc1nn(C)cc1-c1cn(C(C)c2ccccc2)c2cc(-c3c(C)noc3C)cnc12 (stereo not drawn)
Ans. ≤ 1 µM

Qu. Follow-up item: Cc1noc(C)c1-c1cnc2[nH]cc(C(C)(C)c3ccc(F)cc3)c2c1
Ans. ≤ 1 µM

Qu. Would you mind doing Cc1noc(C)c1-c1cnc2[nH]cc(S(=O)(=O)c3cccc(F)c3)c2c1 as well?
Ans. ≤ 1 µM

Qu. Again, but for COCCn1cc(-c2cn(C(C)c3ccccc3)c3cc(-c4c(C)noc4C)cnc23)cn1 (stereo not drawn)
Ans. ≤ 1 µM

Qu. Item: COc1ncc(-c2cn(S(=O)(=O)c3ccccc3)c3cc(-c4c(C)noc4C)cnc23)cn1
Ans. 1 to 10 µM

Qu. What do you get for C=CCn1cc(-c2cn(S(=O)(=O)c3ccccc3)c3cc(-c4c(C)noc4C)cnc23)cn1 ?
Ans. ≤ 1 µM

Qu. Could you do the same for Cc1noc(C)c1-c1cnc2c(C#CCF)cn(S(=O)(=O)C3CCCC3)c2c1 , please?
Ans. ≤ 1 µM

Qu. Same for Cc1noc(C)c1-c1cnc2[nH]cc(P(C)(=O)c3ccccc3)c2c1 (stereo not drawn)
Ans. ≤ 1 µM

Qu. Query COC(c1c(F)cccc1Cl)c1c[nH]c2ncc(-c3c(C)noc3C)cc12 (stereo not drawn) next
Ans. ≤ 1 µM

Qu. Input COc1ncc(-c2cn(S(=O)(=O)C3CCCC3)c3cc(-c4c(C)noc4C)cnc23)cn1
Ans. 1 to 10 µM

Qu. Now the same for Cc1noc(C)c1-c1cnc2ccn(C(CC#N)C3CCCC3)c2c1 (stereo not drawn)
Ans. ≤ 1 µM

Qu. Follow-up item: Cc1noc(C)c1-c1cnc2c(-c3cnn(C)c3)cn(S(=O)(=O)c3cccc(F)c3)c2c1
Ans. ≤ 1 µM

Qu. Same for Cc1noc(C)c1-c1cnc2ccn(S(=O)(=O)c3cccc(Cl)c3)c2c1
Ans. ≤ 1 µM

Qu. Entry Cc1noc(C)c1-c1cnc2c(I)cn(C(C)c3ccccc3)c2c1 (stereo not drawn) please
Ans. ≤ 1 µM

Qu. Consider next the compound Cc1noc(C)c1-c1cnc2ccn(S(=O)(=O)c3ccc(Cl)cc3)c2c1 in the same way.
Ans. 1 to 10 µM

---

- System: MV-4-11
- ASSAY DETAILS: Oncology cell growth assay MV-4-11 (CellTiter Glo, 72 hours)
- Type: cell-based
- PARTICULARS: Homo sapiens, MV4-11, 72 h; MV-4-11 cell growth inhibitory activity, 3d
EXPERIMENTAL ENDPOINT: IC50

Qu. Entry under review: Cc1noc(C)c1-c1cnc2[nH]cc(C(c3ccc(F)cc3)(C3CC3)C3CC3)c2c1 . Reported IC50?
Ans. 1 to 10 µM

Qu. Queued: Cc1noc(C)c1-c1cnc2c(-c3cnn(CC(F)(F)F)c3)cn(S(=O)(=O)C3CCCC3)c2c1
Ans. ≤ 1 µM

Qu. Same question, Cc1nn(C(F)F)cc1S(=O)(=O)n1ccc2ncc(-c3c(C)noc3C)cc21 this time
Ans. 1 to 10 µM

Qu. And then Cc1noc(C)c1-c1cnc2[nH]c(-c3ccc(F)cc3)c(Cc3cccnc3)c2c1 , what is it?
Ans. ≤ 1 µM

---

- Tested on: bromodomain
- ASSAY DETAILS: Bromodomain cell assays of Example 40 (at least one of them)
- Format: cell-based
- PARTICULARS: in at least one of the bromodomain cell assays described in Example 40
pIC50: −log10 of the molar value.
EXPERIMENTAL ENDPOINT: pIC50

Qu. Could you tell me which pIC50 is on file for Cc1noc(C)c1-c1cnc2c(-c3cnn(C)c3)cn([C@@H](C)c3ccccc3)c2c1 ?
Ans. > 5.00

Qu. Then this molecule: CCn1cc(-c2cn(S(=O)(=O)c3ccccc3F)c3cc(-c4c(C)noc4C)cnc23)cn1
Ans. > 5.00

Qu. Also, Cc1noc(C)c1-c1cnc2c(-c3cnn(C)c3)cn(Cc3c(F)cccc3F)c2c1 please.
Ans. > 5.00

Qu. Same lookup for COCCn1cc(-c2cn(S(=O)(=O)c3ccccc3)c3cc(-c4c(C)noc4C)cnc23)cn1 , please.
Ans. > 5.00

Qu. Okay, and C=CCn1cc(-c2cn(S(=O)(=O)C3CC3)c3cc(-c4c(C)noc4C)cnc23)cn1 ?
Ans. > 5.00

Qu. Cool, now Cc1noc(C)c1-c1cnc2[nH]c(C)c(C(O)c3cccnc3)c2c1 (centres unmarked)
Ans. > 5.00

Qu. Query [2H]C([2H])(C1CCC(F)(F)CC1)n1cc(-c2cnn(C(F)F)c2)c2ncc(-c3c(C)noc3C)cc21 next
Ans. > 5.00

Qu. Also Cc1noc(C)c1-c1cnc2c(CC3CC3)cn(S(=O)(=O)CCC(F)(F)F)c2c1 , if possible.
Ans. > 5.00

---

- System: MV-4-11
- ASSAY DETAILS: Oncology cell growth assay MV-4-11 (CellTiter Glo, 72 hours)
- Assay type: cell-based
- PARTICULARS: Homo sapiens, MV4-11, 72 h; MV-4-11 cell growth inhibitory activity, 3d
Hi there, I'd appreciate the recorded IC50 for every entry that follows.

Qu. IC50 for Cc1noc(C)c1-c1cnc2[nH]cc([S+]([O-])c3cccc(F)c3)c2c1 (centres unmarked) ?
Ans. 1 to 10 µM

Qu. Entry COC(c1cn(S(=O)(=O)C2CCCCC2)c2cc(-c3c(C)noc3C)cnc12)C1CC1 (centres unmarked) please
Ans. 1 to 10 µM

Qu. Again, but for Cc1noc(C)c1-c1cnc2c(-c3cn[nH]c3)cn(S(=O)(=O)c3ccccc3)c2c1
Ans. ≤ 1 µM

Qu. Try CCS(=O)(=O)n1cc(C(OC)C2CCC(F)(F)CC2)c2cc(-c3c(C)noc3C)cnc21 (centres unmarked) next.
Ans. 1 to 10 µM

Qu. // query: Cc1noc(C)c1-c1cnc2c(c1)c(C(O)C1CCSCC1)cn2S(=O)(=O)c1ccccc1 (centres unmarked)
Ans. 1 to 10 µM

Qu. Another compound to check: C=CCn1cc(-c2cn(S(=O)(=O)C(C)CC)c3cc(-c4c(C)noc4C)cnc23)cn1 (centres unmarked)
Ans. ≤ 1 µM

Qu. COCCn1cc(-c2cn(S(=O)(=O)c3ccccc3)c3cc(-c4c(C)noc4C)cnc23)cn1 , same question.
Ans. ≤ 1 µM

Qu. Lookup Cc1noc(C)c1-c1cnc2c(-c3cnn(C(F)F)c3)cn(S(=O)(=O)CCC(F)(F)F)c2c1
Ans. 1 to 10 µM
